These data points were gathered from ChEMBL document CHEMBL5120806.

target: Glucagon-like peptide 1 receptor (Homo sapiens); assay: Binding affinity to GLP-1 receptor (unknown origin) assessed as dissociation rate constant by surface plasmon resonance analysis; conditions: filed as activator
[ ]: non-standard residue; d: D form. Aun = NCCCCCCCCCCC(=O)O; AEEA = NCCOCCOCC(=O)O; Aib = CC(C)(N)C(=O)O; Aoc = NCCCCCCCC(=O)O
assay_readout: Kdiss

// query Kdiss value for entry `H-[Aib]EGTFTSDVSSYLEGQAAKEFIAWLVKG[AEEA][AEEA]GVKALIDEILAA-NH2`
3.25 10^-2/s

Param item: `H-[Aib]EGTFTSDVSSYLEGQAAKEFIAWLVKG[Aoc]GVKALIDEILAA-NH2`
1.41 10^-2/s

What do you get for `H-[Aib]EGTFTSDVSSYLEGQAAKEFIAWLVKG[Aun]GVKALIDEILAA-NH2` ?
1.1 10^-2/s

`H-[Aib]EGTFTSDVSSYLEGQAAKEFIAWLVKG[Aun][AEEA]GVKALIDEILAA-NH2` , same question.
1.97 10^-2/s

Further, for `H-[Aib]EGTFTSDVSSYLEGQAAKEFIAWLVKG[Aoc][AEEA]GVKALIDEILAA-NH2` ?
1.65 10^-2/s

Follow-up entry: `H-[Aib]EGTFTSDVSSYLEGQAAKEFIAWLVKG[AEEA]GVKALIDEILAA-NH2`
1.94 10^-2/s

What do you have for `SEMAGLUTIDE` ?
3.2 10^-2/s

* * *

molecular target: Glucagon-like peptide 1 receptor (Homo sapiens, UniProt P43220); assay: Binding affinity to GLP-1 receptor (unknown origin) assessed as binding rate constant by surface plasmon resonance analysis; details: filed as activator
Sequence (P43220 whole entry): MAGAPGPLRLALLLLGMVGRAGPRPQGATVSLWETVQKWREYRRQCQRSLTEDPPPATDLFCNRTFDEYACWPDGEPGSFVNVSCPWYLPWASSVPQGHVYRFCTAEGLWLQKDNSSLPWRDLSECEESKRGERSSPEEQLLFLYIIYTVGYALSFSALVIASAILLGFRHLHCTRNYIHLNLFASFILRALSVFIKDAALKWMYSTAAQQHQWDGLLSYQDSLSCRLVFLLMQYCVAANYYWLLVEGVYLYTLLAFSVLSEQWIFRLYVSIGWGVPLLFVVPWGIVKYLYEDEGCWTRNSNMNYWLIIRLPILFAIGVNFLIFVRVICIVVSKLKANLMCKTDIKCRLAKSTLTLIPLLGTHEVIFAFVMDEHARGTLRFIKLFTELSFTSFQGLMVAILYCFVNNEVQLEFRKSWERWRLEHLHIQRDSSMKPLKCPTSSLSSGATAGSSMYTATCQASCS
[ ]: non-standard residue; d: D form. Aun = NCCCCCCCCCCC(=O)O; AEEA = NCCOCCOCC(=O)O; Aib = CC(C)(N)C(=O)O; Aoc = NCCCCCCCC(=O)O
assay_readout: Ka

Quick one: Ka for `H-[Aib]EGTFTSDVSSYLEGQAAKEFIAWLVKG[Aun][AEEA]GVKALIDEILAA-NH2` ?
1.32 10^4/Ms

Further, for `H-[Aib]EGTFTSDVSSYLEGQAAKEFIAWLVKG[Aoc][AEEA]GVKALIDEILAA-NH2` ?
3.11 10^4/Ms

And the next one, `H-[Aib]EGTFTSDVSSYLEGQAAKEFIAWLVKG[Aoc]GVKALIDEILAA-NH2` ?
2.01 10^4/Ms

Now consider `H-[Aib]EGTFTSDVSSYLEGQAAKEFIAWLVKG[AEEA]GVKALIDEILAA-NH2` and answer again.
1.95 10^4/Ms

Moving on to `H-[Aib]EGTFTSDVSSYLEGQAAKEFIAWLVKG[AEEA][AEEA]GVKALIDEILAA-NH2`
3.57 10^4/Ms

Queued: `H-[Aib]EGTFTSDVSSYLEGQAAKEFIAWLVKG[Aun]GVKALIDEILAA-NH2`
7.53 10^3(1/Ms)

Lookup `SEMAGLUTIDE`
7.26 10^4/Ms
